Biological target: T1, MHC class II HLA-DR2 (DRA*0101/DRB1*1501) (human, UniProt P01903 26-254; P01911 30-266, limits assumed)
T1 construct: mature; Detergent-solubilised native molecule purified from cells; also called DR2b
Test: competition binding assay, purified HLA-DR, biotinylated reference peptide SEQ ID NO 107 as competitor, L243 capture
Where no end group is shown, it is not given here. [ ]: non-standard residue; d: D form. Ala(indol-4-yl) = N[C@@H](Cc1cccc2[nH]ccc12)C(=O)O; Gly(cPent) = N[C@H](C(=O)O)C1CCCC1; Chg = N[C@H](C(=O)O)C1CCCCC1; Idg = not defined here
REPORTED METRIC: IC50 (nM)

Answered examples (3):
Measured IC50, Ac-[Chg]RF[Ala(indol-4-yl)]KNI (not fully specified; printed as Ac(Chg)RF(4′-IndolylAla)KNI, also called Entry 79) [Ac(Chg)RF(4′-IndolylAla)KNI] : 6

Input Ac-VHFFKNI (also called Entry 2) [AcVHFFKNI] . Output IC50: 450

Looking up Ac-[Gly(cPent)]RFFKNI (not fully specified; printed as Ac(Cpg)RFFKNI, also called Entry 25) [Ac(Cpg)RFFKNI] , I see its IC50 listed as 25

P. Ac-V[Chg]RFFK (not fully specified; printed as AcV(Chg)RFFK, also called Entry 85) [AcV(Chg)RFFK]
Q. Ac-[Idg]RFFKNI (not fully specified; printed as Ac(Idg)RFFKNI; reading uncertain, also called Entry 64) [Ac(Idg)RFFKNI]
Which of these two has the smaller recorded IC50: P or Q ? Refer to your chosen entry by its label in the reply.
P
(P: 3 nM, Q: 90 nM)
